// provenance: PubChem BioAssay AID463078

# assay target: Nuclear receptor ROR-alpha (Homo sapiens)
# experiment notes: decrease of GAL4-RORa LBD luciferase signal – cell-based, luminescence, assay provider, RORA inverse agonist project, late-stage follow-up (AID 463078)
# measurement setup: HEK293T GAL4-RORa LBD luciferase reporter, 20 h; at 10 µM; active compounds read low
The threshold is 0.9. Values of fold change beneath it are tagged Yes; values meeting or exceeding it are tagged No.

Record excerpt, results attached:
>  <molecule>
O=C(Nc1ccc(C(O)(C(F)(F)F)C(F)(F)F)cc1)c1ccc(F)cc1F

>  <assay target>
Nuclear receptor ROR-alpha (Homo sapiens)

>  <assigned class>
No

$$$$
>  <molecule>
O=C(Nc1ccc(C(O)(C(F)(F)F)C(F)(F)F)cc1)c1ccc(F)cc1Cl

>  <assay target>
Nuclear receptor ROR-alpha (Homo sapiens)

>  <assigned class>
No

$$$$

// query Confirm or reject: fold change of `O=C(Nc1ccc(C(O)(C(F)(F)F)C(F)(F)F)cc1)c1c(F)cccc1F` lies strictly below 0.9
// result No

// query Confirm or reject: fold change of `O=C(Nc1ccc(C(O)(C(F)(F)F)C(F)(F)F)cc1)c1ccccc1C(F)(F)F` lies strictly below 0.9
// result Yes

// query Confirm or reject: fold change of `O=S(=O)(Nc1ccc(C(O)(C(F)(F)F)C(F)(F)F)cc1)c1cccs1` lies strictly below 0.9
// result Yes

// query Confirm or reject: fold change of `O=C(Nc1ccc(C(O)(C(F)(F)F)C(F)(F)F)cc1)c1ccc(Cl)cc1` lies strictly below 0.9
// result No
